The values you see were collected from ChEMBL document CHEMBL4765386.

System: HCT-116
test_method_notes: Antiproliferative activity against human HCT-116 cells assessed as reduction in cell viability incubated for 48 hrs by MTT assay
Type: functional, cell-based
conditions_used: HCT-116, 48 h
readout_label: IC50 (nM)

Take a look at these entries with their results.
Problem: Provide IC50 value for the following compound: COc1cc(CN(C(=O)CSc2nc3ccccc3s2)c2cc(OC)c(OC)c(OC)c2)cc(OC)c1OC
Solution: 65300

Problem: Provide IC50 value for the following compound: COc1ccc(CN(C(=O)CSc2nc3ccccc3s2)c2cc(OC)c(OC)c(OC)c2)cc1C
Solution: 17100

Problem: Provide IC50 value for the following compound: COc1ccc(CN(C(=O)CSc2nc3ccccc3s2)c2cc(OC)c(OC)c(OC)c2)cc1N=[N+]=[N-]
Solution: 2860

Problem: Provide IC50 value for the following compound: COc1ccc(CN(C(=O)CSc2nc3ccccc3s2)c2cc(OC)c(OC)c(OC)c2)cc1Br
Solution: 4550

[a] COc1ccc(CN(C(=O)CSc2nc3ccccc3s2)c2cc(OC)c(OC)c(OC)c2)cc1F
[b] COc1ccc(CN(C(=O)CSc2nc3ccccc3s2)c2cc(OC)c(OC)c(OC)c2)cc1N
Problem: Could you check which of a and b has a smaller value for IC50? Your answer should be the label of the entry you select.
Solution: b

----------
System: GES1
test_method_notes: Cytotoxicity against human GES1 cells assessed as reduction in cell viability incubated for 48 hrs by MTT assay
Assay type: functional, cell-based
conditions_used: GES1, 48 h
readout_label: IC50 (nM)
Give the quantity in nM, number only.

Problem: Provide IC50 value for the following compound: COc1ccc(CN(C(=O)CSc2nc3ccccc3s2)c2cc(OC)c(OC)c(OC)c2)cc1O
Solution: 249

----------
Test system: HCT-116
test_method_notes: Antiproliferative activity against human HCT-116 cells assessed as reduction in cell viability incubated for 48 hrs by MTT assay
Assay type: functional, cell-based
conditions_used: HCT-116, 48 h
pIC50: −log10 of the molar value.
readout_label: pIC50

Take a look at these entries with their results.
Problem: Provide pIC50 value for the following compound: COc1cc(N(Cc2ccc(F)cc2)C(=O)CSc2nc3ccccc3s2)cc(OC)c1OC
Solution: 4.22

Problem: Provide pIC50 value for the following compound: COc1ccc(CN(C(=O)CSc2nc3ccccc3s2)c2cc(OC)c(OC)c(OC)c2)cc1
Solution: 6.37

Problem: Provide pIC50 value for the following compound: COc1ccc(CN(C(=O)CSc2nc3c(C)cccc3s2)c2cc(OC)c(OC)c(OC)c2)cc1O
Solution: 6.07

Problem: Provide pIC50 value for the following compound: COc1ccc(CN(C(=O)CSc2nc3ccccc3s2)c2cc(OC)c(OC)c(OC)c2)cc1OC
Solution: 4.47

Problem: Provide pIC50 value for the following compound: COc1ccc(CN(C(=O)CSc2nc3ccccc3s2)c2cc(OC)c(OC)c(OC)c2)cc1O
Solution: 6.74

Problem: Provide pIC50 value for the following compound: COc1cc2c(c(OC)c1OC)-c1ccc(OC)c(=O)cc1[C@@H](NC(C)=O)CC2
Solution: 6.89

[a] COc1cc(N(Cc2ccccc2)C(=O)CSc2nc3ccccc3s2)cc(OC)c1OC
[b] COc1ccc(CN(C(=O)CSc2nc3cc(Br)ccc3s2)c2cc(OC)c(OC)c(OC)c2)cc1O
[c] COc1ccc(CN(C(=O)CSc2nc3ccccc3s2)c2cc(OC)c(OC)c(OC)c2)cc1[N+](=O)[O-]
Problem: Put these in order: smallest pIC50 first, largest last. Output spec: labels arranged per the requested ranking.
Solution: a, b, c
(a: 4.26, b: 5.47, c: 5.89)
